Hey, just so you know, these numbers are from patent US11008403.

EC50 values for the binders below.
Target: human TfR ECD (human)
Sequence (chain, as listed by the source): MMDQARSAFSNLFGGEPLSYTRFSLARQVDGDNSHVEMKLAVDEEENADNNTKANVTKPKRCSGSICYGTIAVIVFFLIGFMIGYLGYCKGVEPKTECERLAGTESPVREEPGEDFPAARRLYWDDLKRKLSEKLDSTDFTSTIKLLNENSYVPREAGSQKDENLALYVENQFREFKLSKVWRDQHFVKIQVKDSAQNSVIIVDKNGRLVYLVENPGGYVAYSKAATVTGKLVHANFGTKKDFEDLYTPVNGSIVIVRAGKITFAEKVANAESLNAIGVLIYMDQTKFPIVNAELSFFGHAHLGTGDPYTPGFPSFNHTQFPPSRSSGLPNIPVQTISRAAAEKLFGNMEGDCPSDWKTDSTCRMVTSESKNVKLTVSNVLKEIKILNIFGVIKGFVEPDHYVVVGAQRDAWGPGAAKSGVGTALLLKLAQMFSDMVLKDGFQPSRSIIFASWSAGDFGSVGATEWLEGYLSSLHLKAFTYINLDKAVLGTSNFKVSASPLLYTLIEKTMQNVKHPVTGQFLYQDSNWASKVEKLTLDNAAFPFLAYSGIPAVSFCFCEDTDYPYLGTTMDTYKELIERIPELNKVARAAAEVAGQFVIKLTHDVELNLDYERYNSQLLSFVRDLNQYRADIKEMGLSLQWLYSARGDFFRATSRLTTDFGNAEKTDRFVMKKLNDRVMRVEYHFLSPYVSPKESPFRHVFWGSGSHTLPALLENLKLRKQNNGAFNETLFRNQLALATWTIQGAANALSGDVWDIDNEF
Experiment: ELISA
Report the figure in ng/mL without appending any unit label.

| Binder | EC50 / ng/mL |
| --- | --- |
| hu15G11.v5 LC N53A (antibody, V domains shown) VH: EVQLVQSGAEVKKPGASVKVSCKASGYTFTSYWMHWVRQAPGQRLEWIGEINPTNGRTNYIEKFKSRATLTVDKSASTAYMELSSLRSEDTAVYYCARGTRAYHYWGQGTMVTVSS VL: DIQMTQSPSSLSASVGDRVTITCRASDNLYSNLAWYQQKPGKSPKLLVYDATALADGVPSRFSGSGSGTDYTLTISSLQPEDFATYYCQHFWGTPLTFGQGTKVEIK | 0.3 |

Here is another binder to look at.
Short answer for hu15G11.v5 LC L29A (antibody, V domains shown) VH: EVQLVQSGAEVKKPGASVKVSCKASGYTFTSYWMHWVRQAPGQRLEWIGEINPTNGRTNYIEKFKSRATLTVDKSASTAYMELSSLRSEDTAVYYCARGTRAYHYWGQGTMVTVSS VL: DIQMTQSPSSLSASVGDRVTITCRASDNAYSNLAWYQQKPGKSPKLLVYDATNLADGVPSRFSGSGSGTDYTLTISSLQPEDFATYYCQHFWGTPLTFGQGTKVEIK : EC50 was 0.3
